Parameter: minimal effective dose. Scope: all listed entries.
# Tested on: aerosol antigen induced bronchial spasms and death
# Assay remarks: prevention of aerosol antigen induced bronchial spasms and death in the guinea pig
# Assay type: in vivo
# Experimental setup: Cavia porcellus, po, orally, read-out: minimal amount required to prevent aerosol antigen induced bronchial spasms and death
Experimental endpoint: minimal effective dose (mg/kg)

Compound	Experimental target	Experimental endpoint	Value observed
O=C(CCCN1CCC(C(O)(c2ccccc2)c2ccccc2)CC1)c1ccc(N2CCCCC2)cc1 [Example 9]	aerosol antigen induced bronchial spasms and death	minimal effective dose	4
Cl.O=C(CCCN1CCC(C(O)(c2ccccc2)c2ccccc2)CC1)c1cccs1 [Example 4]	aerosol antigen induced bronchial spasms and death	minimal effective dose	1
CC(C)(C)c1ccc(C(=O)CCCN2CCC(C(O)(c3ccccc3)c3ccccc3)CC2)cc1.Cl [Example 6]	aerosol antigen induced bronchial spasms and death	minimal effective dose	1
Cc1ccc(C(=O)CCCN2CCC(C(O)(c3ccccc3)c3ccccc3)CC2)cc1.Cl [Example 5]	aerosol antigen induced bronchial spasms and death	minimal effective dose	4
